target: Glycogen phosphorylase, muscle form (Oryctolagus cuniculus, UniProt P00489); test: Inhibition of rabbit skeletal muscle glycogen phosphorylase b assessed as inorganic phosphate release; details: read-out: Ki
Sequence (P00489 whole entry): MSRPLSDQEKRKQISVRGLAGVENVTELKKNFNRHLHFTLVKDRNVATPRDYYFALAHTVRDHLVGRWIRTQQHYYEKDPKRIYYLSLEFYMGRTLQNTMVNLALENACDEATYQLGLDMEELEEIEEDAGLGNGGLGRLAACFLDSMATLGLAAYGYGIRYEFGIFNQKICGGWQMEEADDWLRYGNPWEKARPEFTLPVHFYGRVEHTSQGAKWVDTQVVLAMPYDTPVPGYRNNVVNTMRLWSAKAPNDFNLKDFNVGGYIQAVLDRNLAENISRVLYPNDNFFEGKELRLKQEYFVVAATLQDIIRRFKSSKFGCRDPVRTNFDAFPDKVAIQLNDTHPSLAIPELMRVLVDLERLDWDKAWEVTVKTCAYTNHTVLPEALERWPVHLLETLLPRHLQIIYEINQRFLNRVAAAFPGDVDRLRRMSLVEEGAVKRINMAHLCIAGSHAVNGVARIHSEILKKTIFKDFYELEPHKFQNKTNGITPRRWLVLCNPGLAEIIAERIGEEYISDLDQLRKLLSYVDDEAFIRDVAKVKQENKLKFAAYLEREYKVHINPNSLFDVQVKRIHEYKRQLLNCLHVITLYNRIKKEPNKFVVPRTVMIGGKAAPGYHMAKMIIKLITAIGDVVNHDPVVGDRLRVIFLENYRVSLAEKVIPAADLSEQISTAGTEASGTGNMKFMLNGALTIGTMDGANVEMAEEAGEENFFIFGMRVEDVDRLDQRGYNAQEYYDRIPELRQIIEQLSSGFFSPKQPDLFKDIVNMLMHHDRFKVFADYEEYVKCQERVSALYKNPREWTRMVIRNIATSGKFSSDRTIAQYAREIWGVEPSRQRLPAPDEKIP
Labelling: Ki reported below 200 µM becomes label 1; at or above becomes label 0.

{"columns": ["smiles-representation", "assigned-label"],
 "data": [
  ["COC(=O)C(=O)N[C@@H]1O[C@H](CO)[C@@H](O)[C@H](O)[C@H]1O", "label 0"],
  ["O=C(NC(=O)c1ccccn1)N[C@@H]1O[C@H](CO)[C@@H](O)[C@H](O)[C@H]1O", "label 1"],
  ["COC(=O)c1cccc(C(=O)N[C@@H]2O[C@H](CO)[C@@H](O)[C@H](O)[C@H]2O)c1", "label 0"],
  ["O=C(CCCc1ccc2c(c1)CCCC2)N[C@@H]1O[C@H](CO)[C@@H](O)[C@H](O)[C@H]1O", "label 1"],
  ["COC(=O)CCCC(=O)N[C@@H]1O[C@H](CO)[C@@H](O)[C@H](O)[C@H]1O", "label 1"]
]}

----------
Catalogue of molecules with associated pKi
target: Glycogen phosphorylase, muscle form (Oryctolagus cuniculus); test: Inhibition of rabbit skeletal muscle glycogen phosphorylase b assessed as inorganic phosphate release; conditions: read-out: Ki
pKi: −log10 of the molar value.

{"columns": ["smiles-representation", "pKi"],
 "data": [
  ["O=C(N[C@@H]1O[C@H](CO)[C@@H](O)[C@H](O)[C@H]1O)c1ccccc1", 4.09],
  ["O=C(/C=C/c1ccc2ccccc2c1)N[C@@H]1O[C@H](CO)[C@@H](O)[C@H](O)[C@H]1O", 5.46],
  ["O=C(NC(=O)c1cc2ccccc2[nH]1)N[C@@H]1O[C@H](CO)[C@@H](O)[C@H](O)[C@H]1O", 5.40],
  ["O=C(N[C@@H]1O[C@H](CO)[C@@H](O)[C@H](O)[C@H]1O)C(F)(F)F", 4.09],
  ["O=C(CCc1ccccc1)N[C@@H]1O[C@H](CO)[C@@H](O)[C@H](O)[C@H]1O", 4.07],
  ["COC(=O)CCC(=O)N[C@@H]1O[C@H](CO)[C@@H](O)[C@H](O)[C@H]1O", 3.77],
  ["O=C(Nc1ccc2ccccc2c1)N[C@@H]1O[C@H](CO)[C@@H](O)[C@H](O)[C@H]1O", 5.28],
  ["O=C(Nc1cccc2ccccc12)C(=O)N[C@@H]1O[C@H](CO)[C@@H](O)[C@H](O)[C@H]1O", 3.84],
  ["CCc1ccc([C@H](C)CC(=O)N[C@@H]2O[C@H](CO)[C@@H](O)[C@H](O)[C@H]2O)cc1", 3.42],
  ["O=C(Cc1ccccc1)NC(=O)N[C@@H]1O[C@H](CO)[C@@H](O)[C@H](O)[C@H]1O", 3.22],
  ["O=C(COc1ccc(-c2ccccc2)cc1)N[C@@H]1O[C@H](CO)[C@@H](O)[C@H](O)[C@H]1O", 5.08],
  ["O=C(NC(=O)c1ccc(C(F)(F)F)cc1)N[C@@H]1O[C@H](CO)[C@@H](O)[C@H](O)[C@H]1O", 5.74],
  ["CC(C)(C)c1ccc(C(=O)NC(=O)N[C@@H]2O[C@H](CO)[C@@H](O)[C@H](O)[C@H]2O)cc1", 6.15],
  ["O=C(/C=C/c1ccccc1)N[C@@H]1O[C@H](CO)[C@@H](O)[C@H](O)[C@H]1O", 4.74],
  ["O=C(N[C@@H]1O[C@H](CO)[C@@H](O)[C@H](O)[C@H]1O)[C@H](O)[C@@H](O)[C@@H](O)[C@H](O)CO", 3.65],
  ["O=C(N[C@@H]1O[C@H](CO)[C@@H](O)[C@H](O)[C@H]1O)c1cccc2ccccc12", 5.00],
  ["O=C(Nc1ccc2ccccc2c1)C(=O)N[C@@H]1O[C@H](CO)[C@@H](O)[C@H](O)[C@H]1O", 4.25]
]}

----------
Catalogue of molecules with associated Activity
target: Glycogen phosphorylase, liver form (Rattus norvegicus) (UniProt P09811); test: Inhibition of glycogen phosphorylase a in Wistar rat hepatocytes assessed as effect on conversion of GPa to GPb forms by measuring GPa level at 20 uM after 30 mins relative to 5 mM glucose; type: cell-based; design: scale not given: the % may be the effect or the level left; settings: Hepatocyte
Sequence (P09811 whole entry): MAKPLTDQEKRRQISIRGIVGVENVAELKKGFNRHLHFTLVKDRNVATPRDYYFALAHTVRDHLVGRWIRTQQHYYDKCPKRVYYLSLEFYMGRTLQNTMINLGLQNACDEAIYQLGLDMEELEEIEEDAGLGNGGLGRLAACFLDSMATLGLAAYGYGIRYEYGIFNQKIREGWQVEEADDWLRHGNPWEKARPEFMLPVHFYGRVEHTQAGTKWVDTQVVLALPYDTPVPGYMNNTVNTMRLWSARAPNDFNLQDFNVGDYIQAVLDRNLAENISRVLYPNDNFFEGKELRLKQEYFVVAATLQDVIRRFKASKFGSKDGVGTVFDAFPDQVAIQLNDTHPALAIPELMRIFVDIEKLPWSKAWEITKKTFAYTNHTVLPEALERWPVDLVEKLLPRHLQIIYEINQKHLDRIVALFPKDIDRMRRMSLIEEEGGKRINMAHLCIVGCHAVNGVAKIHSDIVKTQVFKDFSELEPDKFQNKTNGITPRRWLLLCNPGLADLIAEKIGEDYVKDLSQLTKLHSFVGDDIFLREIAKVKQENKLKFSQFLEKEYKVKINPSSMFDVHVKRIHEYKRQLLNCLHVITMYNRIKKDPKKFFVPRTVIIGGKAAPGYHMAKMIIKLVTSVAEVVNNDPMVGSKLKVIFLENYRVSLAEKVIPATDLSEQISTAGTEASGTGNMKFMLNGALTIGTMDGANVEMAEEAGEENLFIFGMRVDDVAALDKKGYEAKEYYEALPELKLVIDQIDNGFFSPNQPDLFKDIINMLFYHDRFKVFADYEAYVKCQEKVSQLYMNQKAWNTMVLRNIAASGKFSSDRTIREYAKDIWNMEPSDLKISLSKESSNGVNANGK

{"columns": ["smiles-representation", "value-unit", "Activity"],
 "data": [
  ["O=C(CCCc1ccc2c(c1)CCCC2)N[C@@H]1O[C@H](CO)[C@@H](O)[C@H](O)[C@H]1O", "%", 100],
  ["O=C(/C=C/c1ccc(-c2ccccc2)cc1)N[C@@H]1O[C@H](CO)[C@@H](O)[C@H](O)[C@H]1O", "%", 83.3],
  ["O=C(COc1ccc(-c2ccccc2)cc1)N[C@@H]1O[C@H](CO)[C@@H](O)[C@H](O)[C@H]1O", "%", 80.3],
  ["CC(C)c1ccc(/C=C/C(=O)N[C@@H]2O[C@H](CO)[C@@H](O)[C@H](O)[C@H]2O)cc1", "%", 106]
]}

----------
Catalogue of molecules with associated logP
assay: Octanol water partition coefficient, logP of the compound; assay type: physicochemical

{"columns": ["smiles-representation", "logP"],
 "data": [
  ["O=C(N[C@@H]1O[C@H](CO)[C@@H](O)[C@H](O)[C@H]1O)C1=Cc2cc(Cl)ccc2OC1", -0.169],
  ["Cc1ccccc1[C@H](Cc1ccco1)C(=O)N[C@@H]1O[C@H](CO)[C@@H](O)[C@H](O)[C@H]1O", 0.004],
  ["CC[C@H](CC(=O)N[C@@H]1O[C@H](CO)[C@@H](O)[C@H](O)[C@H]1O)c1ccc(C)c(C)c1", 0.01],
  ["C[C@@H]1C[C@@]1(C(=O)N[C@@H]1O[C@H](CO)[C@@H](O)[C@H](O)[C@H]1O)c1cccc2ccccc12", 0.255],
  ["O=C(C[C@H]1CC(=O)c2c(F)cc(F)cc21)N[C@@H]1O[C@H](CO)[C@@H](O)[C@H](O)[C@H]1O", -1.21],
  ["O=C(COc1ccc(-c2ccccc2)cc1)N[C@@H]1O[C@H](CO)[C@@H](O)[C@H](O)[C@H]1O", -0.082],
  ["CC(C)(C(=O)N[C@@H]1O[C@H](CO)[C@@H](O)[C@H](O)[C@H]1O)c1cccc2ccccc12", 0.085],
  ["O=C(CCc1ncc(-c2ccccc2)o1)N[C@@H]1O[C@H](CO)[C@@H](O)[C@H](O)[C@H]1O", -0.915],
  ["O=C1Cc2ccc(Cl)cc2C=C1C(=O)N[C@@H]1O[C@H](CO)[C@@H](O)[C@H](O)[C@H]1O", -0.221],
  ["O=C(CCCc1ccc2c(c1)CCCC2)N[C@@H]1O[C@H](CO)[C@@H](O)[C@H](O)[C@H]1O", 0.208],
  ["C[C@@H](Cc1ccc(C(C)(C)C)cc1)C(=O)N[C@@H]1O[C@H](CO)[C@@H](O)[C@H](O)[C@H]1O", 0.379],
  ["COC(=O)c1ccc(/C=C/C(=O)N[C@@H]2O[C@H](CO)[C@@H](O)[C@H](O)[C@H]2O)cc1", -0.805],
  ["N[C@@H](Cc1c[nH]c2ccccc12)C(=O)N[C@@H]1O[C@H](CO)[C@@H](O)[C@H](O)[C@H]1O", -2.1],
  ["N[C@H](Cc1c[nH]c2ccccc12)C(=O)N[C@@H]1O[C@H](CO)[C@@H](O)[C@H](O)[C@H]1O", -2.09],
  ["COc1cc(/C=C/C(=O)N[C@@H]2O[C@H](CO)[C@@H](O)[C@H](O)[C@H]2O)cc(OC)c1", -0.36],
  ["CC(C)c1ccc(C[C@H](C)C(=O)N[C@@H]2O[C@H](CO)[C@@H](O)[C@H](O)[C@H]2O)cc1", 0.01],
  ["CC(C)c1ccc(/C=C/C(=O)N[C@@H]2O[C@H](CO)[C@@H](O)[C@H](O)[C@H]2O)cc1", 0.296],
  ["CC(C)c1ccc([C@@H](C)CC(=O)N[C@@H]2O[C@H](CO)[C@@H](O)[C@H](O)[C@H]2O)cc1", 0.075],
  ["C[C@H](CC(=O)N[C@@H]1O[C@H](CO)[C@@H](O)[C@H](O)[C@H]1O)c1ccc(C(C)(C)C)cc1", 0.33],
  ["CC(C)(Oc1ccc2ccccc2c1)C(=O)N[C@@H]1O[C@H](CO)[C@@H](O)[C@H](O)[C@H]1O", 0.037],
  ["Cc1ccc2c(c1)C=C(C(=O)N[C@@H]1O[C@H](CO)[C@@H](O)[C@H](O)[C@H]1O)C(=O)C2", -0.451],
  ["CCc1ccc(/C=C/C(=O)N[C@@H]2O[C@H](CO)[C@@H](O)[C@H](O)[C@H]2O)cc1", 0.04],
  ["O=C(C[C@H](c1ccc(Cl)cc1)C1CC1)N[C@@H]1O[C@H](CO)[C@@H](O)[C@H](O)[C@H]1O", 0.083],
  ["O=C(/C=C/c1ccc(-c2ccccc2)cc1)N[C@@H]1O[C@H](CO)[C@@H](O)[C@H](O)[C@H]1O", 0.851],
  ["Cc1ccc(-c2cnc(CCC(=O)N[C@@H]3O[C@H](CO)[C@@H](O)[C@H](O)[C@H]3O)o2)cc1", -0.574]
]}
